# Kd annotations
Target: human CA-XII (Homo sapiens)
Construct: purchased Creative BioMart CA12-261H
Test: Surface Plasmon Resonance (SPR) binding kinetics to recombinant human CA-XII (Biacore 8K, single-cycle kinetics, 1:1 binding model)
Details: Chelated Metal: None, 25° C., pH 7.4, read-out: CAXII KD
Experimental: G1. Surface Plasmon Resonance Assay Conditions for hCA-IX and hCA-XII Surface Plasmon Resonance (SPR) experiments were conducted on a Biacore 8K instrument (Cytiva, Marlborough, MA) to determine the binding kinetics of the compound to recombinant human CA-IX (Acro, CA9-H82E3) and CA-XII (Creative BioMart, CA12-261H) proteins. […]

Answered cases to consult:
{"columns": ["givenSmiles", "experimentalTarget", "endpointLabel", "result"],
 "data": [
  ["CC(CCC(=O)N[C@@H](CC(=O)N[C@@H](CC(=O)N1CCN(C(=O)CN2CCN(CC(=O)O)CCN(CC(=O)O)CCN(CC(=O)O)CC2)C[C@H]1CCCCn1cc(C23CCC(C(=O)Nc4nnc(S(N)(=O)=O)s4)(CC2)C3)nn1)C(=O)O)C(=O)O)(c1ccc(O)cc1)c1ccc(O)cc1", "human CA-XII (Homo sapiens)", "Kd", "< 1 nM"],
  ["CC(CCCC(=O)N1CCC(C(N)=O)(C(=O)NCC(=O)N2CCN(C(=O)CCOCCOCCCC(=O)CN3CCN(CC(=O)O)CCN(CC(=O)O)CCN(CC(=O)O)CC3)C[C@H]2C(=O)NCCn2cc(C34CC(C(=O)Nc5nnc(S(N)(=O)=O)s5)(C3)C4)nn2)CC1)(c1ccc(O)cc1)c1ccc(O)cc1", "human CA-XII (Homo sapiens)", "Kd", "> 10 nM"],
  ["NS(=O)(=O)c1nnc(NC(=O)C23CC(c4cn(CCNC(=O)[C@@H]5CN(C(=O)CN6CCN(CC(=O)O)CCN(CC(=O)O)CCN(CC(=O)O)CC6)CCN5C(=O)C[C@H](NC(=O)C[C@H](NC(=O)Cc5ccc(C6CC6)cc5)C(=O)O)C(=O)O)nn4)(C2)C3)s1", "human CA-XII (Homo sapiens)", "Kd", "2.5 to 10 nM"]
]}

Challenge: Return reported Kd; argument: CC(CCCC(=O)N[C@@H](CC(=O)N[C@@H](CC(=O)N1CCN(C(=O)CN2CCN(CC(=O)O)CCN(CC(=O)O)CCN(CC(=O)O)CC2)C[C@H]1C(=O)NCCn1cc(C23CC(C(=O)Nc4nnc(S(N)(=O)=O)s4)(C2)C3)nn1)C(=O)O)C(=O)O)(c1ccc(O)cc1)c1ccc(O)cc1
Response given: > 10 nM

====

target: human CA-XII (Homo sapiens, UniProt O43570); construct: purchased Creative BioMart CA12-261H; experiment: Surface Plasmon Resonance (SPR) binding kinetics to recombinant human CA-XII (Biacore 8K, single-cycle kinetics, 1:1 binding model); settings: Chelated Metal: Lu-175, 25° C., pH 7.4, read-out: CAXII KD
Sequence (O43570 25-354): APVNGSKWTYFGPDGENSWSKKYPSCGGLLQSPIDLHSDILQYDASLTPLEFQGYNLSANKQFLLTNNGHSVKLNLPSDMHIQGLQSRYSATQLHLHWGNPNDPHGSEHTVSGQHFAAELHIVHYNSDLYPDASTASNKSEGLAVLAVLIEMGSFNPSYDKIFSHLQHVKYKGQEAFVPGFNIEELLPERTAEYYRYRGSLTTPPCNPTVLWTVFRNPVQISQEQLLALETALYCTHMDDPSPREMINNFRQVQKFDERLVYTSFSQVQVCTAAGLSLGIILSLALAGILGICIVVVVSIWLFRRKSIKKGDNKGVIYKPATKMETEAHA
Listing of recorded Kd by entry.

{"columns": ["givenSmiles", "experimentalTarget", "endpointLabel", "result"],
 "data": [
  ["CC(CCCC(=O)N1CCOC[C@H]1C(=O)N[C@@H](CC(=O)N1CCN(C(=O)CN2CCN(CC(=O)O)CCN(CC(=O)O)CCN(CC(=O)O)CC2)C[C@H]1C(=O)NCCn1cc(C23CC(C(=O)Nc4nnc(S(N)(=O)=O)s4)(C2)C3)nn1)C(=O)O)(c1ccc(O)cc1)c1ccc(O)cc1.[Lu+3]", "human CA-XII (Homo sapiens, UniProt O43570)", "Kd", "> 0.01 µM"]
]}

Challenge: Param readout = Kd; param system = human CA-XII (Homo sapiens, UniProt O43570); param query = CC(CCCC(=O)N1CCC(C(N)=O)(C(=O)NCC(=O)N2CCN(C(=O)CCOCCOCCOCCOCCOCCOCCOCCOCCNC(=O)CN3CCN(CC(=O)O)CCN(CC(=O)O)CCN(CC(=O)O)CC3)C[C@H]2C(=O)NCCn2cc(C34CC(C(=O)Nc5nnc(S(N)(=O)=O)s5)(C3)C4)nn2)CC1)(c1ccc(O)cc1)c1ccc(O)cc1.[Lu+3] ; response: value
Response given: > 0.01 µM

Challenge: // lookup Kd | system=human CA-XII (Homo sapiens, UniProt O43570) | key= NS(=O)(=O)c1nnc(NC(=O)C23CC(c4cn(CCNC(=O)[C@@H]5CN(C(=O)CN6CCN(CC(=O)O)CCN(CC(=O)O)CCN(CC(=O)O)CC6)CCN5C(=O)C[C@H](NC(=O)C[C@H](NC(=O)C5CC6(C5)CC(F)(F)C6)C(=O)O)C(=O)O)nn4)(C2)C3)s1.[Lu+3]
Response given: 0.0025 to 0.01 µM

Challenge: Item: NS(=O)(=O)c1nnc(NC(=O)C23CCC(c4cn(CCNC(=O)[C@@H]5CN(C(=O)CN6CCN(CC(=O)O)CCN(CC(=O)O)CCN(CC(=O)O)CC6)CCN5C(=O)CNC(=O)C5(C(=O)O)CCN(C(=O)CCCc6ccc(I)cc6)CC5)nn4)(CC2)CC3)s1.[Lu+3] Test system: human CA-XII (Homo sapiens, UniProt O43570) Read-out: Kd Value: ?
Response given: 0.0025 to 0.01 µM
